MIC overview
system: Staphylococcus aureus; experiment: Minimum inhibitory concentration against Staphylococcus aureus in vitro.; type: functional
Answer in µg/mL, number only, no unit symbol.

Reference set (2 entries):
COMPOUND: Br.Br.CN(C(=O)C[C@@H](N)CCCNC1=NCCN1)C1CN=C(NC(N)=O)NC1=O (stereo not given in full)
MIC / µg/mL: 12.5
//
COMPOUND: CN(C(=O)CC(N)c1cccc(NC(=N)N)c1)C1CN=C(NC(N)=O)NC1=O.Cl.Cl (stereo not given)
MIC / µg/mL: 50

Lookup result for CN(C(=O)C[C@@H](N)CCCC#N)C1CN=C(NC(N)=O)NC1=O.Cl (stereo not given in full) ; measured MIC: 50

Lookup result for CN(C(=O)C[C@@H](N)CCCN)C1CN=C(NC(N)=O)NC1=O.Cl.Cl (stereo not given in full) ; measured MIC: 0.4

Lookup result for CN(C(=O)C[C@@H](N)CCCN=C(N)N)C1CN=C(NC(N)=O)NC1=O.Cl.Cl (stereo not given in full) ; measured MIC: 0.1

----------
Selectivity ratio overview
experiment: In vitro selectivity ratio of procaryotic translation to eukaryotic translation; format: functional
Give the figure only, with no unit attached.

COMPOUND: CN(C(=O)C[C@@H](N)CCCCN)C1CN=C(NC(N)=O)NC1=O.Cl.Cl (some centres undefined)
MEASURED PARAMETER: Selectivity ratio
READOUT VALUE: 5.3
//
COMPOUND: CN(C(=O)C[C@@H](N)CCCC#N)C1CN=C(NC(N)=O)NC1=O.Cl (some centres undefined)
MEASURED PARAMETER: Selectivity ratio
READOUT VALUE: 1
//
COMPOUND: CN(C(=O)C[C@H](N)CCCN)C1CN=C(NC(N)=O)NC1=O.Cl.Cl (some centres undefined)
MEASURED PARAMETER: Selectivity ratio
READOUT VALUE: 1.6
//
COMPOUND: CN(C(=O)C[C@@H](N)CCCN=C(N)N)C1CN=C(NC(N)=O)NC1=O.Cl.Cl (some centres undefined)
MEASURED PARAMETER: Selectivity ratio
READOUT VALUE: 0.57
//
COMPOUND: Br.Br.CN(C(=O)C[C@@H](N)CCCNC1=NCCN1)C1CN=C(NC(N)=O)NC1=O (some centres undefined)
MEASURED PARAMETER: Selectivity ratio
READOUT VALUE: 1
//
COMPOUND: C/C(N)=N/CCC[C@H](N)CC(=O)N(C)C1CN=C(NC(N)=O)NC1=O.Cl.Cl (some centres undefined)
MEASURED PARAMETER: Selectivity ratio
READOUT VALUE: 0.17
//
COMPOUND: C/N=C(/N)NCCC[C@H](N)CC(=O)N(C)C1CN=C(NC(N)=O)NC1=O.Cl.Cl (some centres undefined)
MEASURED PARAMETER: Selectivity ratio
READOUT VALUE: 9.1
//
COMPOUND: CN(C(=O)C[C@@H](N)CC[C@H](N)CO)C1CN=C(NC(N)=O)NC1=O.Cl.Cl (some centres undefined)
MEASURED PARAMETER: Selectivity ratio
READOUT VALUE: 1

# ---- query compound ----
Lookup result for CC(N)CCC(N)CC(=O)N(C)C1CN=C(NC(N)=O)NC1=O.Cl.Cl (centres undefined) ; measured Selectivity ratio: 1.2
